Details: in ethanol, 282.29 K
Property name: solubility (mole fraction)
In your answer, state the number alone without any accompanying words.

Any idea what its solubility (mole fraction) is? The compound is CCc1ccc(C(=O)c2ccccc2C(=O)O)cc1
0.0733

----------
Conditions: in n-propanol, 343.15 K
Property name: solubility (mole fraction)
A bare number is all that is needed in reply.

Item under review: CCc1ccc(C(=O)c2ccccc2C(=O)O)cc1 . Reported solubility (mole fraction)?
0.387

----------
Details: in ethyl formate, 294.91 K
Property name: solubility (mole fraction)

Look up solubility (mole fraction) for this compound: CCc1ccc(C(=O)c2ccccc2C(=O)O)cc1
0.0038

----------
Conditions: in acetone, 314.89 K
Property name: solubility (mole fraction)
Give the figure only, with no unit attached.

What does the record list as solubility (mole fraction) for CCc1ccc(C(=O)c2ccccc2C(=O)O)cc1 ?
0.0107

----------
Conditions: in 1,4-dioxane, 308.09 K
Property name: solubility (mole fraction)
Answer using only a numeral; do not append any unit.

Find the recorded solubility (mole fraction) belonging to CCc1ccc(C(=O)c2ccccc2C(=O)O)cc1 and report it.
0.0153

----------
Conditions: in methanol, 305.56 K
Property name: solubility (mole fraction)
Answer as a number with no unit attached.

What solubility (mole fraction) value was documented for this molecule, CCc1ccc(C(=O)c2ccccc2C(=O)O)cc1 ?
0.164

----------
Details: in acetone, 284.85 K
Property name: solubility (mole fraction)

Dear colleague, I am looking for the recorded solubility (mole fraction) of the following molecule: CCc1ccc(C(=O)c2ccccc2C(=O)O)cc1
0.0022

----------
Settings: in ethyl formate, 304.6 K
Property name: solubility (mole fraction)

I would be grateful if you could share the reported solubility (mole fraction) for CCc1ccc(C(=O)c2ccccc2C(=O)O)cc1 .
0.006

----------
Settings: in n-propanol, 308.86 K
Property name: solubility (mole fraction)

Would you mind telling me what solubility (mole fraction) value was observed for CCc1ccc(C(=O)c2ccccc2C(=O)O)cc1 ?
0.168

----------
Settings: in methanol, 314.4 K
Property name: solubility (mole fraction)
Respond using a number only.

Return reported solubility (mole fraction); argument: CCc1ccc(C(=O)c2ccccc2C(=O)O)cc1
0.202

----------
Details: in isopropanol, 284.74 K
Property name: solubility (mole fraction)
Note: the reply should be a number with no unit written.

Which solubility (mole fraction) is reported for this molecule? CCc1ccc(C(=O)c2ccccc2C(=O)O)cc1
0.0037

----------
Details: in ethyl formate, 318.67 K
Property name: solubility (mole fraction)
// no unit, no text: just the number

State the recorded solubility (mole fraction) for this entry: CCc1ccc(C(=O)c2ccccc2C(=O)O)cc1
0.01

----------
Conditions: in methanol, 290.81 K
Property name: solubility (mole fraction)

Entry under review: CCc1ccc(C(=O)c2ccccc2C(=O)O)cc1 . Reported solubility (mole fraction)?
0.101

----------
Conditions: in methanol, 328.69 K
Property name: solubility (mole fraction)
Number, no unit, nothing else.

Entry CCc1ccc(C(=O)c2ccccc2C(=O)O)cc1 has what solubility (mole fraction)?
0.273

----------
Conditions: in DMF, 325.55 K
Property name: solubility (mole fraction)
Give the value as a plain number.

// solubility (mole fraction) lookup, key: CCc1ccc(C(=O)c2ccccc2C(=O)O)cc1
0.507

----------
Details: in benzene, 332.7 K
Property name: solubility (mole fraction)
// return just the number, without any unit appended

Could you tell me which solubility (mole fraction) is on file for CCc1ccc(C(=O)c2ccccc2C(=O)O)cc1 ?
0.0793

----------
Details: in methanol, 323.8 K
Property name: solubility (mole fraction)

Can you share its solubility (mole fraction)? I mean this molecule: CCc1ccc(C(=O)c2ccccc2C(=O)O)cc1
0.248

----------
Conditions: in 1,4-dioxane, 303.53 K
Property name: solubility (mole fraction)
// print number alone

Any idea what its solubility (mole fraction) is? The molecule is CCc1ccc(C(=O)c2ccccc2C(=O)O)cc1
0.0121

----------
Settings: in ethanol, 304.6 K
Property name: solubility (mole fraction)
// keep it numeric: no unit symbol after the value

Which solubility (mole fraction) is reported for this compound? CCc1ccc(C(=O)c2ccccc2C(=O)O)cc1
0.164

----------
Settings: in isopropanol, 323.37 K
Property name: solubility (mole fraction)
Provide a numeric answer; units are not to be included.

I'd like to know its solubility (mole fraction). The compound in question is CCc1ccc(C(=O)c2ccccc2C(=O)O)cc1
0.0464

----------
Settings: in benzene, 328.38 K
Property name: solubility (mole fraction)
Give the figure by itself; no unit, no explanation.

Item under review: CCc1ccc(C(=O)c2ccccc2C(=O)O)cc1 . Reported solubility (mole fraction)?
0.0598

----------
Conditions: in DMF, 305.65 K
Property name: solubility (mole fraction)
Answer using only a numeral; do not append any unit.

Form field: reported solubility (mole fraction) of CCc1ccc(C(=O)c2ccccc2C(=O)O)cc1
0.451

----------
Settings: in NMP, 280.1 K
Property name: solubility (mole fraction)

What value of solubility (mole fraction) has been recorded for this entry: CCc1ccc(C(=O)c2ccccc2C(=O)O)cc1
0.163

----------
Conditions: in benzene, 302.78 K
Property name: solubility (mole fraction)
I'd appreciate a reply containing only the number, no unit.

Recorded solubility (mole fraction) of CCc1ccc(C(=O)c2ccccc2C(=O)O)cc1 , please.
0.0109

----------
Conditions: in THF, 305.65 K
Property name: solubility (mole fraction)
Reply briefly: the number, and no unit.

GET /values?readout=solubility (mole fraction)&item= CCc1ccc(C(=O)c2ccccc2C(=O)O)cc1
0.0178

----------
Settings: in DMF, 314.34 K
Property name: solubility (mole fraction)
Enter a number only.

Item under review: CCc1ccc(C(=O)c2ccccc2C(=O)O)cc1 . Reported solubility (mole fraction)?
0.47

----------
Settings: in methanol, 279.9 K
Property name: solubility (mole fraction)

Look at this compound and give its reported solubility (mole fraction). CCc1ccc(C(=O)c2ccccc2C(=O)O)cc1
0.0627

----------
Details: in ethyl formate, 309.59 K
Property name: solubility (mole fraction)

// lookup solubility (mole fraction) for CCc1ccc(C(=O)c2ccccc2C(=O)O)cc1
0.0075

----------
Conditions: in THF, 325.55 K
Property name: solubility (mole fraction)
Respond using a number only.

Please give the measured solubility (mole fraction) for this compound: CCc1ccc(C(=O)c2ccccc2C(=O)O)cc1
0.0377

----------
Details: in NMP, 322.85 K
Property name: solubility (mole fraction)

Which solubility (mole fraction) reading was recorded for the compound CCc1ccc(C(=O)c2ccccc2C(=O)O)cc1 ?
0.396

----------
Details: in ethanol, 314.3 K
Property name: solubility (mole fraction)
Please reply with the number alone, leaving off any unit.

Look at this compound and give its reported solubility (mole fraction). CCc1ccc(C(=O)c2ccccc2C(=O)O)cc1
0.214

----------
Details: in acetone, 280.25 K
Property name: solubility (mole fraction)

Look at this molecule and give its reported solubility (mole fraction). CCc1ccc(C(=O)c2ccccc2C(=O)O)cc1
0.0015

----------
Conditions: in ethanol, 338.19 K
Property name: solubility (mole fraction)

Which solubility (mole fraction) is listed for CCc1ccc(C(=O)c2ccccc2C(=O)O)cc1 ?
0.354

----------
Details: in benzene, 283.05 K
Property name: solubility (mole fraction)
Enter the number alone.

Bench note: what solubility (mole fraction) did CCc1ccc(C(=O)c2ccccc2C(=O)O)cc1 show?
0.0023

----------
Settings: in isopropanol, 313.25 K
Property name: solubility (mole fraction)
The answer should be a number; do not append a unit.

Suppose we examine the molecule CCc1ccc(C(=O)c2ccccc2C(=O)O)cc1 ; what solubility (mole fraction) value has been reported?
0.0305

----------
Details: in n-propanol, 328.62 K
Property name: solubility (mole fraction)
Please reply with the value in numeric form only.

Recorded solubility (mole fraction) for CCc1ccc(C(=O)c2ccccc2C(=O)O)cc1 , please?
0.279

----------
Details: in ethanol, 342.82 K
Property name: solubility (mole fraction)
Please give the numeric answer without any surrounding text.

Given the entry CCc1ccc(C(=O)c2ccccc2C(=O)O)cc1 , report its measured solubility (mole fraction).
0.388

----------
Details: in DMF, 281.2 K
Property name: solubility (mole fraction)
API doc: respond with a numeric literal and nothing else, no unit.

Value lookup for solubility (mole fraction); key = CCc1ccc(C(=O)c2ccccc2C(=O)O)cc1
0.343
